Each recorded value in this set is attributed to patent EP4563146A1.

Record set of IC50 for target or system West Nile Virus (WNV) NS2B-NS3 protease (West Nile virus, UniProt Q9Q6P4).

Sample answers from the record:
1. CN(C)C[C@H]1CC[C@H]([n+]2cc([N-]C(=O)Nc3cc(NC(=O)Cc4cccc(O)n4)cc(C(F)(F)F)c3)on2)CC1 = 1 to 20 µM
2. Cc1nc(N)ncc1-c1ccc(C[n+]2cc([N-]C(=O)Nc3ccnc(C(F)(F)F)c3)on2)cc1 = < 0.1 µM
3. Cc1ncnc(C)c1C1=CCC(C[n+]2cc([N-]C(=O)Nc3ccnc(C(F)(F)F)c3)on2)CC1 (stereo not shown) = 0.1 to 1 µM

Query: API: value(readout= IC50, system= West Nile Virus (WNV) NS2B-NS3 protease (West Nile virus, UniProt Q9Q6P4), query= Cc1ccccc1CC(=O)Nc1cc(NC(=O)[N-]c2c[n+]([C@@H]3CCC[C@H](C(=O)N(C)C)C3)no2)cc(C(F)(F)F)c1 (racemic) [Example 253] )
Response: 0.1 to 1 µM
